So I've got a bunch of binders here, and I need their pSTAT3 (MFI) in CD8 T cells at 0.1 µM values.
system.under.test: T1, IL10Rα and IL2Rγ on human primary cells (CD8 T cells, CD4 T cells, monocytes) (human) (UniProt Q13651)
T1 sequence (looked up) 1: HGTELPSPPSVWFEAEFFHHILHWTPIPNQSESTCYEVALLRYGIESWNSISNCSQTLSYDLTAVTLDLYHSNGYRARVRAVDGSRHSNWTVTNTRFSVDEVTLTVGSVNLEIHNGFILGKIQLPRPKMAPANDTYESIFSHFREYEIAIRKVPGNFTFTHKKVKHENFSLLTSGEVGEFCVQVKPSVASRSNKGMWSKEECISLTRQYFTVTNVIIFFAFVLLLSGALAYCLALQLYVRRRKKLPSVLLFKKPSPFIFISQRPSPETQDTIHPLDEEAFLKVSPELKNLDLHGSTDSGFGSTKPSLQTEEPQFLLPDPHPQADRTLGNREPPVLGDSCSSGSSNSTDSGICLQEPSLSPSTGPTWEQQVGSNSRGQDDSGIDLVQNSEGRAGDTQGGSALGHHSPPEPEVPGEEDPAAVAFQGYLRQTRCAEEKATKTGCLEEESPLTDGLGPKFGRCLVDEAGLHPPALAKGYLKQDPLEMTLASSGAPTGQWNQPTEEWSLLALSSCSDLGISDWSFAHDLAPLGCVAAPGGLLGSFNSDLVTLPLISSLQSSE
T1 sequence (looked up) 2: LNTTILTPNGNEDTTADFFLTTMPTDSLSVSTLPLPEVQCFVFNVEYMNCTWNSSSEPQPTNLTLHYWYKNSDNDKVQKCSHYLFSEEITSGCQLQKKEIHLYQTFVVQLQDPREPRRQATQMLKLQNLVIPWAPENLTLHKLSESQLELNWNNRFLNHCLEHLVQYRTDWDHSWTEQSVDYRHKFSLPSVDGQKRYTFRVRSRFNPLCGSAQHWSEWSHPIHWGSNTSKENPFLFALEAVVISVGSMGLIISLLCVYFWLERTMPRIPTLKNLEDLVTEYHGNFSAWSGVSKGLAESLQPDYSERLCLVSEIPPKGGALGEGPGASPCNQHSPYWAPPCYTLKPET
test.summary: cell-based or functional assay
Param answer (str): number followed by unit.

Below, 3 binders whose answers are already recorded.
hIL10Ra_VHH14-hIL2Rg_VHH19, linker GS, tag his (bispecific antibody, not shown: small tags and cut ends) QVQLQESGGGSVQAGGSLRLSCGASGYTYSSYCMGWFRQVPGKEREGVAVIDSDGSTSYADSVKGRFTISKDNGKNTLYLQMNSLKPEDTAMYYCAADLGHYRPPCGVLYLGMDYWGKGTQVTVSSGSQVQLQESGGGSVQAGGSLRLSCTASGFTFDDREMNWYRQAPGNECELVSTISSDGSTYYADSVKGRFTISQDNAKNTVYLQMDSVKPEDTAVYYCAADFMIAIQAPGAGCWGQGTQVTVSS ... 7100 MFI
hIL10Ra_VHH14-hIL2Rg_VHH19, no linker, tag his (bispecific antibody, not shown: small tags and cut ends) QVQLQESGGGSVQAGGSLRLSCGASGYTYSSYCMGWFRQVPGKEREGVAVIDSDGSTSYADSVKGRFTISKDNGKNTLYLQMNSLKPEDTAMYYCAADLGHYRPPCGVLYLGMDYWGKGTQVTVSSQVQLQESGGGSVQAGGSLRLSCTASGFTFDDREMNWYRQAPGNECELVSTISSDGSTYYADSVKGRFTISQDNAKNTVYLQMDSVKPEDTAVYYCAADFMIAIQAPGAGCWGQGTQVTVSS ... 6780 MFI
hIL10Ra_VHH14-hIL2Rg_VHH19, linker …, tag his (bispecific antibody, not shown: small tags and cut ends) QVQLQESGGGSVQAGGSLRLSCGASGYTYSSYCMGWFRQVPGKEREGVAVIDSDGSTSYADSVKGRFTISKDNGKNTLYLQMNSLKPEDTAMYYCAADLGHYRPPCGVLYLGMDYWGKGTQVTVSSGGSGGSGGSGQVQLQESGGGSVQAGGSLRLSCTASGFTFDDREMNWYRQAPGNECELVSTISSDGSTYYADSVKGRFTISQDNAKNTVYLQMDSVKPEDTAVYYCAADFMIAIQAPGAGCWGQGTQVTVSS ... 6780 MFI

List pSTAT3 (MFI) in CD8 T cells at 0.1 µM for every entry below, keeping the order given.
1. hIL10Ra_VHH14-hIL2Rg_VHH19, linker GGGSGGGS, tag his (bispecific antibody, not shown: small tags and cut ends) QVQLQESGGGSVQAGGSLRLSCGASGYTYSSYCMGWFRQVPGKEREGVAVIDSDGSTSYADSVKGRFTISKDNGKNTLYLQMNSLKPEDTAMYYCAADLGHYRPPCGVLYLGMDYWGKGTQVTVSSGGGSGGGSQVQLQESGGGSVQAGGSLRLSCTASGFTFDDREMNWYRQAPGNECELVSTISSDGSTYYADSVKGRFTISQDNAKNTVYLQMDSVKPEDTAVYYCAADFMIAIQAPGAGCWGQGTQVTVSS
2. hIL10Ra_VHH14-hIL2Rg_VHH19, linker GGSGGS, tag his (bispecific antibody, not shown: small tags and cut ends) QVQLQESGGGSVQAGGSLRLSCGASGYTYSSYCMGWFRQVPGKEREGVAVIDSDGSTSYADSVKGRFTISKDNGKNTLYLQMNSLKPEDTAMYYCAADLGHYRPPCGVLYLGMDYWGKGTQVTVSSGGSGGSQVQLQESGGGSVQAGGSLRLSCTASGFTFDDREMNWYRQAPGNECELVSTISSDGSTYYADSVKGRFTISQDNAKNTVYLQMDSVKPEDTAVYYCAADFMIAIQAPGAGCWGQGTQVTVSS
3. hIL10Ra_VHH14-hIL2Rg_VHH19, linker GGGS, tag his (bispecific antibody, not shown: small tags and cut ends) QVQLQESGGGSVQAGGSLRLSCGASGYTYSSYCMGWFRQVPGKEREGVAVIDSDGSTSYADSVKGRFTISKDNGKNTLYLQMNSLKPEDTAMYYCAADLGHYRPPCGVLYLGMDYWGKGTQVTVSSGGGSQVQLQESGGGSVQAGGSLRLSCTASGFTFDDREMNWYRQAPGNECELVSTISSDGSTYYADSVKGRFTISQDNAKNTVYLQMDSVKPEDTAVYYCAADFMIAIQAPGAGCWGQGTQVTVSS

Key:
7070 MFI
8160 MFI
6580 MFI
